Target: human β3 adrenergic receptor (Homo sapiens, UniProt P13945)
Construct: expressed in transfected cells; host or cells: DXB-11 Chinese hamster ovary (CHO) cell line, stably transfected (phd expression vector)
Sequence (P13945 whole entry): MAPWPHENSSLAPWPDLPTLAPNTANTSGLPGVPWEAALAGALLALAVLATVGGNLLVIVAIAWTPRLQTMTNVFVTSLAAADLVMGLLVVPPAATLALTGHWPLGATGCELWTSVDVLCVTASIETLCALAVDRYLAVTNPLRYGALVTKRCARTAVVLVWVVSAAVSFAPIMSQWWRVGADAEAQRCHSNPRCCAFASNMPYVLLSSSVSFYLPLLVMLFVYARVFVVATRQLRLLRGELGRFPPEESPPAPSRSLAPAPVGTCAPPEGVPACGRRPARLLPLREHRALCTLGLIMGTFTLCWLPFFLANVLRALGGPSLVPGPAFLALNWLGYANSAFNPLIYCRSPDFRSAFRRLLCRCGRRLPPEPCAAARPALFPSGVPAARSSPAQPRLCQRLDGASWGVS
Experiment: whole cell receptor coupled c-AMP assay, human β3 receptor in CHO cells (EC50, Emax relative to isoproterenol)
Format: cell-based
Conditions: Emax ± standard error of the mean; average of at least 3 runs except where n = 1; compound tested in the isolated form listed
propertyMeasured: Emax (%) ± SEM

{"smilesData": "CC(C)(Cc1ccc(Oc2ccc(C(N)=O)cn2)cc1)NC[C@H](O)COc1ccccc1-c1nnco1", "Emax (%) ± SEM": 51.7}
{"smilesData": "CC(C)(Cc1ccc(Oc2ccccc2C#N)cc1)NC[C@H](O)COc1ccccc1-c1cscn1.Cl", "Emax (%) ± SEM": 47.9}
{"smilesData": "CC(C)(Cc1ccc(Oc2ncccc2C(N)=O)cc1)NC[C@H](O)COc1ccccc1-c1cnco1.Cl", "Emax (%) ± SEM": 67.4}

* * *

Molecular target: human β3 adrenergic receptor (Homo sapiens, UniProt P13945)
Construct: expressed in transfected cells; host or cells: DXB-11 Chinese hamster ovary (CHO) cell line, stably transfected (phd expression vector)
Experiment: whole cell receptor coupled c-AMP assay, human β3 receptor in CHO cells (EC50, Emax relative to isoproterenol)
Format: cell-based
Settings: Emax ± standard error of the mean; average of at least 3 runs except where n = 1; compound tested in the isolated form listed
propertyMeasured: Emax (%) ± SEM

Known results for molecules:
{"smilesData": "CC(C)(Cc1ccc(Oc2ncccc2C(N)=O)cc1)NC[C@H](O)COc1ccccc1N1CCCC1=O", "system": "human β3 adrenergic receptor (Homo sapiens, UniProt P13945)", "units": "%", "obsValue": 22.4}
{"smilesData": "CC(C)(Cc1ccc(Oc2ncccc2C(N)=O)cc1)NC[C@H](O)COc1ccccc1-c1cccs1.Cl", "system": "human β3 adrenergic receptor (Homo sapiens, UniProt P13945)", "units": "%", "obsValue": 80.7}
{"smilesData": "CC(C)(Cc1ccc(Oc2ncccn2)cc1)NC[C@H](O)COc1ccccc1-c1nccs1.O=C(O)C(F)(F)F", "system": "human β3 adrenergic receptor (Homo sapiens, UniProt P13945)", "units": "%", "obsValue": 73.1}
{"smilesData": "CC(C)(Cc1ccc(Oc2ccccc2C#N)cc1)NC[C@H](O)COc1ccccc1-c1ccns1.O=C(O)C(F)(F)F", "system": "human β3 adrenergic receptor (Homo sapiens, UniProt P13945)", "units": "%", "obsValue": 63.0}
{"smilesData": "COC(=O)c1ccc(Oc2ccc(CC(C)(C)NC[C@H](O)COc3ccccc3-c3cccs3)cc2)c(Cl)c1", "system": "human β3 adrenergic receptor (Homo sapiens, UniProt P13945)", "units": "%", "obsValue": 62.2}

[1] CC(C)(Cc1ccc(Oc2ccc(S(C)(=O)=O)cc2)cc1)NC[C@H](O)COc1ccccc1-c1ccno1.O=C(O)C(F)(F)F
[2] CC(C)(Cc1ccc(Oc2cccnc2C#N)cc1)NC[C@H](O)COc1ccccc1-c1nccs1.O=C(O)C(F)(F)F
[3] CC(C)(Cc1ccc(Oc2ccc(C#N)cn2)cc1)NC[C@H](O)COc1ccccc1N1CCCC1=O
[4] CCOC(=O)c1cccnc1Oc1ccc(CC(C)(C)NC[C@H](O)COc2ccccc2-c2cccs2)cc1
Input line: Put these in order: smallest Emax (%) ± SEM first, largest last. Rank the items, then write their labels in that order.
Output line: 3, 1, 2, 4

* * *

Biological target: human β3 adrenergic receptor (Homo sapiens, UniProt P13945)
Construct: expressed in transfected cells; host or cells: DXB-11 Chinese hamster ovary (CHO) cell line, stably transfected (phd expression vector)
Assay: whole cell receptor coupled c-AMP assay, human β3 receptor in CHO cells (EC50, Emax relative to isoproterenol)
Type: cell-based
Details: Emax ± SEM; average of at least 3 runs except as otherwise indicated; tested as the isolated form listed
propertyMeasured: Emax (%) ± SEM

{"compound": "CC(C)(Cc1ccc(Oc2ccc(C#N)o2)cc1)NC[C@H](O)COc1ccccc1-c1nccs1.O=C(O)C(F)(F)F [Example 330]", "Emax (%) ± SEM": 55.9}
{"compound": "CC(C)(Cc1ccc(Oc2ccc(C#N)nc2)cc1)NC[C@H](O)COc1ccccc1-c1ncco1.O=C(O)C(F)(F)F [Example 364]", "Emax (%) ± SEM": 69.2}
{"compound": "CC(C)(Cc1ccc(Oc2ccc(C(N)=O)o2)cc1)NC[C@H](O)COc1ccccc1-c1nccs1.O=C(O)C(F)(F)F [Example 327]", "Emax (%) ± SEM": 56.7}
{"compound": "CC(C)(Cc1ccc(Oc2ccc(C#N)cn2)cc1)NC[C@H](O)COc1ccccc1-c1ccoc1.Cl [Example 305]", "Emax (%) ± SEM": 68.8}

* * *

Target: human β3 adrenergic receptor (Homo sapiens, UniProt P13945)
Construct: expressed in transfected cells; host or cells: DXB-11 Chinese hamster ovary (CHO) cell line, stably transfected (phd expression vector)
Assay: whole cell receptor coupled c-AMP assay, human β3 receptor in CHO cells (EC50, Emax relative to isoproterenol)
Type: cell-based
Details: Emax ± standard error of the mean; average of at least 3 runs except where n = 1; compound tested in the isolated form listed
propertyMeasured: Emax (%) ± SEM

{"smilesData": "CC(C)(Cc1ccc(Oc2ncccc2Cl)cc1)NC[C@H](O)COc1ccccc1-c1cccs1.O=C(O)C(F)(F)F", "Emax (%) ± SEM": 64.4}
{"smilesData": "CC(C)(Cc1ccc(Oc2ccccc2C#N)cc1)NC[C@H](O)COc1ccc(F)cc1-c1cccs1.O=C(O)C(F)(F)F", "Emax (%) ± SEM": 42.4}
{"smilesData": "CC(C)(Cc1ccc(Oc2ccc(C(N)=O)cc2)cc1)NC[C@H](O)COc1ccccc1-c1ccon1.Cl", "Emax (%) ± SEM": 45.9}

[I] CC(C)(Cc1ccc(Oc2ccc(C#N)s2)cc1)NC[C@H](O)COc1ccccc1-c1cscn1.Cl
[II] CC(C)(Cc1ccc(Oc2ncccc2C(N)=O)cc1)NC[C@H](O)COc1ccccc1N1CCCCC1.Cl.Cl
[III] CC(C)(Cc1ccc(Oc2ncccc2C#N)cc1)NC[C@H](O)COc1cccc(F)c1-c1cccs1.O=C(O)C(F)(F)F
Input line: Put these in order: smallest Emax (%) ± SEM first, largest last. Rank the items, then write their labels in that order.
Output line: II, III, I
(II: 21.3%, III: 30.5%, I: 48.4%)

* * *

Target: human β3 adrenergic receptor (Homo sapiens, UniProt P13945)
Construct: expressed in transfected cells; host or cells: DXB-11 Chinese hamster ovary (CHO) cell line, stably transfected (phd expression vector)
Assay: whole cell receptor coupled c-AMP assay, human β3 receptor in CHO cells (EC50, Emax relative to isoproterenol)
Format: cell-based
Conditions: Emax ± standard error of the mean; average of at least 3 runs except where n = 1; compound tested in the isolated form listed
propertyMeasured: Emax (%) ± SEM

Known results for compounds:
{"smilesData": "CC(C)(Cc1ccc(Oc2ccccc2C(N)=O)cc1)NC[C@H](O)COc1ccccc1-c1cscn1.Cl", "units": "%", "Emax (%) ± SEM": 66.6}
{"smilesData": "CC(C)(Cc1ccc(Oc2ccc(C(F)(F)F)cc2Cl)cc1)NC[C@H](O)COc1ccccc1-c1nccs1.O=C(O)C(F)(F)F", "units": "%", "Emax (%) ± SEM": 47.9}
{"smilesData": "CC(C)(Cc1ccc(Oc2ncccc2C(N)=O)cc1)NC[C@H](O)COc1ccccc1N1CCCC1", "units": "%", "Emax (%) ± SEM": 72.1}

[1] CC(C)(Cc1ccc(Oc2ccc(S(C)(=O)=O)cc2)cc1)NC[C@H](O)COc1ccccc1-n1cccc1.Cl
[2] CC(C)(Cc1ccc(Oc2nc(Cl)c(Cl)cc2Cl)cc1)NC[C@H](O)COc1ccccc1-c1ccno1.O=C(O)C(F)(F)F
[3] CC(C)(Cc1ccc(Oc2ccc(C#N)cn2)cc1)NC[C@H](O)COc1ccccc1-c1cc2ccccc2[nH]1
Input line: Arrange by Emax (%) ± SEM, high to low. Rank the items, then write their labels in that order.
Output line: 2, 1, 3
(2: 73.0%, 1: 42.7%, 3: 23.7%)

* * *

Molecular target: human β3 adrenergic receptor (Homo sapiens)
Construct: expressed in transfected cells; host or cells: DXB-11 Chinese hamster ovary (CHO) cell line, stably transfected (phd expression vector)
Experiment: whole cell receptor coupled c-AMP assay, human β3 receptor in CHO cells (EC50, Emax relative to isoproterenol)
Format: cell-based
Conditions: Emax ± standard error of the mean; average of at least 3 runs except where n = 1; compound tested in the isolated form listed
Protocol: […] Cells from each of the above cell lines are resuspended and added (20,000/well) to a 96-well plate. […] After halting the incubation with quench buffer (50 mM Na Acetate, 0.25% Triton X-100, pH 5.8), the c-AMP level is quantified by scintillation proximity assay (SPA) using a modification of the commercially available c-AMP kit (Amersham, Arlington Heights, Ill.) with rabbit anti-cAMP antibody (ICN Biomedicals, Aurora, Ohio) for the kit. […]
propertyMeasured: Emax (%) ± SEM

{"smilesData": "CC(C)(Cc1ccc(Oc2ncccc2C(N)=O)cc1)NC[C@H](O)COc1ccccc1-c1nncs1.O=C(O)C(=O)O", "propertyMeasured": "Emax (%) ± SEM", "obsValue": 52.4}
{"smilesData": "CC(C)(Cc1ccc(Oc2ncccc2C(N)=O)cc1)NC[C@H](O)COc1ccccc1-c1nnco1", "propertyMeasured": "Emax (%) ± SEM", "obsValue": 64.6}

[A] CC(C)(Cc1ccc(Oc2ncccc2Cl)cc1)NC[C@H](O)COc1ccccc1-c1nccs1.O=C(O)C(F)(F)F
[B] CC(C)(Cc1ccc(Oc2ccc(C#N)cn2)cc1)NC[C@H](O)COc1ccccc1-c1cccs1.O=C(O)C(=O)O
Input line: # return whichever of A and B has the smaller Emax (%) ± SEM Answer with the label corresponding to your selection.
Output line: B
(B: 24.6%, A: 62.2%)
